- Test system: UACC-62 melanoma
- experiment.summary: NCI tumour cell line growth inhibition, 48 h
metric.name: TGI

compound | target.or.test.system | TGI
CCCCCCCCCCC(O)C1CCC(C(O)CCC(O)C2CCC(CCCCCCC[C@H](O)CC3=C[C@@H](C)OC3=O)O2)O1 (stereo partly specified) | UACC-62 melanoma | > 100 µM
CCOc1ccc(Nc2nc(-c3ccc4c(c3)NC(=O)CO4)cs2)cc1 | UACC-62 melanoma | 23.5 µM
Cc1ccc(/C=C/C(=O)c2sc(-c3cccnc3)nc2C)cc1 | UACC-62 melanoma | > 100 µM
Fc1ccccc1-c1nn2c(C34CC5CC(CC(C5)C3)C4)nnc2s1 | UACC-62 melanoma | > 100 µM
Cc1cc(NCCCCCCCCCC[n+]2c(C)cc(N)c3ccccc32)c2ccccc2n1 | UACC-62 melanoma | 4.17 µM

Let us move to another entry and its TGI.
Which measured TGI value corresponds to `[O-][n+]1onc(-c2ccccc2)c1CN1CCOCC1` ?
> 100 µM

----------
- Tested on: HT29 colon
- experiment.summary: NCI tumour cell line growth inhibition, 48 h
Consider the following molecules and their measured TGI readings.

Which measured TGI value corresponds to `CCCn1c(SCC)c2cc3cc4ccccc4cc3cc2c1-c1nc(F)nc(F)n1` ?
> 100 µM

Which measured TGI value corresponds to COC(=O)C12C(=O)O[C@H](C)C1(O)C(C)C(=O)N2C (stereo partly specified) ?
> 100 µM

Which measured TGI value corresponds to `COc1ccc(C2=C(c3ccc(OC)c(OC)c3)C(=O)OC2)cc1` ?
> 100 µM

Which measured TGI value corresponds to Cc1ccc(S(=O)(=O)NC2C(=O)c3ccccc3C(=O)C2n2cnc3ccccc32)cc1 (stereo unspecified) ?
> 100 µM

Which measured TGI value corresponds to CC(=O)OC1COC(n2c(-c3ccc(Cl)cc3)cc(-c3ccccc3)c(C#N)c2=S)C(OC(C)=O)C1OC(C)=O (stereo unspecified) ?
> 64.6 µM

Which measured TGI value corresponds to `CCOC(=O)NC(=O)c1cn(CCCOC(=O)CCCCCCCCCCC(=O)OCCCn2cc(C(=O)NC(=O)OCC)c(=O)n(C)c2=O)c(=O)n(C)c1=O` ?
> 100 µM

Which measured TGI value corresponds to C1CCN(C2OC3C(COC3N3CCCCC3)OC2OC2CCO[C@@H]2N2CCCCC2)CC1 (stereo partly specified) ?
> 100 µM

Which measured TGI value corresponds to `O=C(O)c1ccc(Nc2nc3ccccc3nc2-c2cccs2)cc1` ?
> 100 µM

Which measured TGI value corresponds to `CCCCC(=O)NC1(c2cc3ccccc3s2)CCCCC1` ?
> 100 µM

Which measured TGI value corresponds to `O=c1cc(CBr)c2ccc(O)cc2o1` ?
> 100 µM

----------
- Tested on: SF-539 CNS
- experiment.summary: NCI tumour cell line growth inhibition, 48 h
Consider the following molecules and their measured TGI readings.
# value in µM; strip the unit string

molecule | units.text | TGI
O=C([O][Hg][CH2]C1COCC([CH2][Hg][O]C(=O)c2ccccc2)O1)c1ccccc1 (stereo not given) | µM | 51.8

Which measured TGI belongs to `COC1=C(N2CC2)C(=O)c2nc3n(c2C1=O)CCC3` , tested on SF-539 CNS?
7.79

----------
- System: SN12C renal
- experiment.summary: NCI tumour cell line growth inhibition, 48 h
Consider the following compounds and their measured TGI readings.
# value in µM; strip the unit string

Which measured TGI value corresponds to COc1cc(C(c2cc3c(cc2O)OCO3)N2CCCCC2)cc(OC)c1OC (stereo unspecified) ?
25.1

Which measured TGI value corresponds to CC(=O)OC1COC(n2c(-c3ccc(Cl)cc3)cc(-c3ccccc3)c(C#N)c2=S)C(OC(C)=O)C1OC(C)=O (stereo unspecified) ?
31.8

Which measured TGI value corresponds to `CC1=NN(C(=O)c2ccccc2O)C(=O)/C1=C/c1ccccc1O` ?
33.7

----------
- Test system: HS 578T breast
- experiment.summary: NCI tumour cell line growth inhibition, 48 h
metric.name: log10 TGI (log10 of the value in µM)
Note: values are log10 of TGI expressed in µM.

Solved cases (2 shown):
molecule | log10 TGI
N#Cc1c(Cl)/c(=C/O)c(=O)n2c1nc1ccccc12 | 1.98
Cc1occc1C(=S)Nc1ccc(Cl)c(/C=N/OC(C)C)c1 | 1.83

Which measured log10 TGI value corresponds to `COc1cc2c(Oc3ccc4[nH]c(C)cc4c3F)ccnc2cc1OCC1(N)CC1` ?
0.52

Which measured log10 TGI value corresponds to CCC1=CC2Cc3nc4cc(Cl)ccc4c(N)c3C(C1)C2 (stereo unspecified) ?
1.12

Which measured log10 TGI value corresponds to `N#Cc1c(Cl)c2ccccc2n2c1nc1ccccc12` ?
1.80

Which measured log10 TGI value corresponds to `COc1ccc(C(c2c[nH]c3ccc(Br)cc23)c2c[nH]c3ccc(Br)cc23)cc1` ?
0.58

Which measured log10 TGI value corresponds to `O=[N+]([O-])c1ccc2[nH]ncc2c1Cl` ?
1.77

----------
- Test system: UACC-257 melanoma
- experiment.summary: NCI tumour cell line growth inhibition, 48 h
metric.name: TGI

Solved cases (5 shown):
molecule | metric.name | recorded.value
CCOC(=O)C(NC(=O)CC(C)C)(Nc1ccc(S(=O)(=O)Nc2nc(C)cc(C)n2)cc1)C(F)(F)F (stereo unspecified) | TGI | > 100 µM
NC(=O)c1ccc2c(-c3ccnc(NCCCO)n3)c(-c3ccc(F)cc3)nn2c1 | TGI | > 25 µM
COC(=O)C12C3C4C5C3(C#N)C1C5(C(=O)OC)C42C(=O)N(C(C)C)C(C)C (stereo unspecified) | TGI | > 100 µM
Cc1cccc(C)c1NC(=S)NC=C(C(N)=O)C(N)=O | TGI | > 100 µM
O=C(C1C(c2ccccc2)N1C(c1ccccc1)c1ccccc1)C1C(c2ccccc2)N1C(c1ccccc1)c1ccccc1 (stereo unspecified) | TGI | 40.3 µM

Which measured TGI value corresponds to `CC1=NN(c2nc(N)nc(CSCc3nc(N)nc(N(C)C)n3)n2)C(C)(C)C1` ?
> 100 µM

Which measured TGI value corresponds to `N#Cc1c(Cl)c2ccccc2n2c1nc1ccccc12` ?
> 100 µM

Which measured TGI value corresponds to `CNn1c(C)n[nH]c1=O` ?
> 100 µM

Which measured TGI value corresponds to `COc1cc(Nc2cnc3cc(F)c(F)cc3n2)cc(OC)c1` ?
> 100 µM

Which measured TGI value corresponds to Cc1cc(N2CCCC2)nc(NC2CCCC(Nc3ccnc4cc(Cl)ccc34)C2)n1 (stereo unspecified) ?
3.76 µM

Which measured TGI value corresponds to COc1ccc2c(c1)N=C1CSC(c3cccc(Br)c3)N1C2 (stereo unspecified) ?
24.3 µM

----------
- Test system: SK-MEL-2 melanoma
- experiment.summary: NCI tumour cell line growth inhibition, 48 h
metric.name: TGI

Which measured TGI value corresponds to COC(=O)C1[C@@H](C(=O)OC)C12C=Cc1ccccc1C=C2 (stereo not given in full) ?
> 100 µM

Which measured TGI value corresponds to CC1(C)CCCCCCC2OC2CCCCCC(C)(C)C1=O (stereo not given) ?
> 65.4 µM

Which measured TGI value corresponds to COC1CC(OC2CCC3(C)C(CCC45CCC(C6=CC(=O)OC6)C(C)(CCC43)C5=O)C2)OC(C)C1O (stereo not given) ?
> 100 µM

----------
Consider the following compounds and their measured TGI readings.
- Test system: MCF7 breast
- experiment.summary: NCI tumour cell line growth inhibition, 48 h
Where a SMILES comes first, the peptide text is derived from it. [ ]: non-standard residue; d: D form. The star is where a group is joined. ξ: configuration not given here. NMeN = CN[C@@H](CC(N)=O)C(=O)O; NMeV = CN[C@H](C(=O)O)C(C)C; ξNMeV = CNC(C(=O)O)C(C)C; Boc = CC(C)(C)OC(=O)*; ξNMeA = CNC(C)C(=O)O

compound | TGI
Cc1cc(N2CCCC2)nc(NC2CCCC(Nc3ccnc4cc(Cl)ccc34)C2)n1 (stereo not given) | 2.63 µM
COc1ccc(-c2ccc(/C=N/n3c(COc4ccc(Cl)cc4Cl)nn(CN4CCN(C)CC4)c3=S)o2)c([N+](=O)[O-])c1 | 29.8 µM
CCCCCC(CO)C(O)(C(F)(F)F)C(F)(F)F (stereo not given) | > 10 µM

Which measured TGI value corresponds to `O=[N+]([O-])c1ccc(N=Nc2c(O)ccc3ccccc23)cc1` ?
> 100 µM

Which measured TGI value corresponds to `COC(=O)c1ccc(N=NN(C)COc2ccc([N+](=O)[O-])cc2)cc1` ?
> 100 µM

Which measured TGI value corresponds to `c1cn2cc(-c3ccc4ncn(C5CCCCC5)c4c3)nc(-c3ccc4c(c3)ncn4C3CCCCC3)c2n1` ?
4.58 µM

Which measured TGI value corresponds to `Cc1cc2cc3c(C)cc(=O)oc3c(C)c2o1` ?
> 100 µM

Which measured TGI value corresponds to `Cc1ccc(-c2nc(N)nc3c2nnn3Cc2cccc(CO[C@H]3CCOC3)n2)o1` ?
> 100 µM

Which measured TGI value corresponds to COC(=O)C(C)N(C)C(=O)[C@H](CC(N)=O)N(C)C(=O)[C@@H]1CCCN1C(=O)[C@H](C(C)C)N(C)C(=O)C(C(C)C)N(C)C(=O)[C@@H](NC(=O)OC(C)(C)C)C(C)C (stereo not given in full) (Boc-V[ξNMeV][NMeV]P[NMeN][ξNMeA]-OMe) ?
> 50 µM

Which measured TGI value corresponds to `CN(/N=C/c1ccccn1)C1=NCCCCN1` ?
> 100 µM

Which measured TGI value corresponds to `COc1ccc2c(CN3CCC[C@H]3C(=O)O)cc3cc4c(cc3c2c1)OCO4` ?
62.3 µM

Which measured TGI value corresponds to COc1ccc2c(c1)OC1=C(C(=O)OC1)C2c1cc(OC)c(OC)c(OC)c1 (stereo not given) ?
> 100 µM

Which measured TGI value corresponds to `O=c1[nH]ccc2nc(N3CCC(O)CC3)nc(Nc3cccc(C(F)(F)F)c3)c12` ?
12.7 µM

Which measured TGI value corresponds to COc1cc(C2=C(C#N)C(N)OC3=C2COc2ccccc23)cc(OC)c1OC (stereo not given) ?
> 100 µM

Which measured TGI value corresponds to `c1ccc(Nc2nnc(Cn3ccc4ccccc43)s2)cc1` ?
> 100 µM

Which measured TGI value corresponds to `C=CCN1C=CC(=O)[C@H](O[Si](C)(C)C(C)(C)C)[C@@H]1/C=C/c1ccccc1` ?
21.9 µM

Which measured TGI value corresponds to `O=c1c2cc([N+](=O)[O-])ccc2n2n1Cc1ccccc1C2` ?
> 100 µM

Which measured TGI value corresponds to NC(=O)C(c1ccccc1)N1OC2C(=O)N(c3cccc4ccccc34)C(=O)C2C1c1c2ccccc2c(Cl)c2ccccc12 (stereo not given) ?
11.2 µM

Which measured TGI value corresponds to O=C1CCC2CCC1C2 (stereo not given) ?
> 100 µM

Which measured TGI value corresponds to `NC(=N\N=C/c1cccc([N+](=O)[O-])c1)/C(N)=N\N=C/c1cccc([N+](=O)[O-])c1` ?
> 100 µM
